# test.description: Metabolic stability in rat liver microsomes (RLMs)
# test.conditions: rat, microsomes, pH 7.4, Metabolic stability: RLM CL Average, summary table; average of R1-R3
outcome.measure: microsomal CLint (µL/min/mg)
Answers are plain numbers, in µL/min/mg.

QUERY: Quick one: give measured microsomal CLint for `CN1CCC(=O)NCCSCCS(=O)(=O)CCSC[C@H](NC(=O)c2ccc(Cl)s2)C(=O)N[C@@H](Cc2ccccc2)C1=O`
RESULT: 117

----------
# system.name: human α-thrombin (Homo sapiens, UniProt P00734)
# test.description: Sub-library screen for active and permeable cyclic peptides (PAMPA plus thrombin inhibition)
# Type: biochemical
# test.conditions: donor sample diluted to theoretical equilibrium (1 μM in assay); crude; slopes normalized to DMSO
outcome.measure: Residual thrombin activity: Equilibrated sample
Give bare numbers.

Below are worked cases with known answers.
>  <smiles.entry>
Cc1cccc(C[C@@H]2NC(=O)[C@@H](NC(=O)c3ccc(Cl)s3)CCSCc3ccccc3CSCCNC(=O)C[C@H]3CCCN3C2=O)c1

>  <readout.number>
96.9

$$$$
>  <smiles.entry>
O=C1C[C@H]2CCCN2C(=O)[C@H](Cc2ccc(Cl)cc2)NC(=O)[C@@H](NC(=O)c2ccc(Cl)s2)CSC/C=C/CSCCN1

>  <readout.number>
91.7

$$$$

Query molecule follows.
QUERY: Provide measured Residual thrombin activity: Equilibrated sample value, entry: `COc1ccc(C[C@@H]2NC(=O)[C@@H](NC(=O)c3ccc(Cl)s3)CCSCCS(=O)(=O)CCSCCNC(=O)C[C@H]3CCCN3C2=O)cc1`
RESULT: 98.9

----------
# test.description: Metabolic stability in rat liver microsomes (RLMs)
# test.conditions: rat, microsomes, Half Life (min) R2, RLM metabolic stability; replicate R2; 0-60 min
What half-life was measured for each of the following?

Here's what some known entries look like.
>  <smiles.entry>
C[C@@H]1NC(=O)[C@@H](NC(=O)c2ccc(Cl)s2)CSCc2cccc(n2)CSCCNC(=O)[C@H]2CCCN(C2)C1=O

>  <half-life>
23.2 min

$$$$
>  <smiles.entry>
O=C(N[C@H]1CSCCS(=O)(=O)CCSCCNC(=O)C2(CC2)CNC(=O)[C@H](Cc2ccccc2)NC1=O)c1ccc(Cl)s1

>  <half-life>
26.9 min

$$$$
>  <smiles.entry>
C[C@@H]1NC(=O)[C@@H](NC(=O)c2ccc(Cl)s2)CSCc2cccc(n2)CSCCNC(=O)c2ccc(cc2)CNC1=O

>  <half-life>
11.4 min

$$$$
>  <smiles.entry>
O=C1CCSCc2cccc(n2)CSCCNC(=O)[C@H](CO)NC(=O)[C@@H](NC(=O)c2ccc(Cl)s2)CN1

>  <half-life>
14.1 min

$$$$
>  <smiles.entry>
O=C(N[C@H]1CSCc2cccc(n2)CSCCNC(=O)[C@H](Cc2c[nH]cn2)NC(=O)C2(CCCC2)NC1=O)c1ccc(Cl)s1

>  <half-life>
> 60 min

$$$$
>  <smiles.entry>
C[C@@H]1NC(=O)[C@@H](NC(=O)c2ccc(Cl)s2)CNC(=O)CCSCc2cccc(n2)CSCCNC1=O

>  <half-life>
14.3 min

$$$$

QUERY: Output measured half-life for this item: `O=C1NCCSCc2cccc(n2)CSC[C@H](NC(=O)c2ccc(Cl)s2)C(=O)N[C@@H](CO)C(=O)NCc2cccc1c2`
RESULT: 24.2 min

The measured values listed here are drawn from paper PMC11062899.
